Data origin, for the record: patent US6656956B2

# System name: rh beta tryptase (Homo sapiens, UniProt Q15661)
# Sequence (Q15661 31-275): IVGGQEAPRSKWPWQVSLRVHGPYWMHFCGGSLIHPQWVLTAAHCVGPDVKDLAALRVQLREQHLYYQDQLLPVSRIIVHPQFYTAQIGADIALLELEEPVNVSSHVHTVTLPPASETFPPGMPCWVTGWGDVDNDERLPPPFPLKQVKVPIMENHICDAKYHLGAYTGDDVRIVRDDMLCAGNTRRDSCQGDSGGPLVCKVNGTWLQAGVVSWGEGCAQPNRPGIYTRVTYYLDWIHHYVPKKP
# Assay text: tryptase inhibition in vitro test (cleavage of N-p-tosyl-Gly-Pro-Lys-para-nitroaniline, p-nitroaniline measured at 405 nm)
# Study conditions: rh beta tryptase 0.91 U/ml, substrate 0.6 mM, Tris HCl buffer with calcium and heparin, pH 7.4, 37° C., 5 minutes incubation; read-out: Tryptase-inhibiting activity
pIC50: −log10 of the molar value. Where a name gives a salt, the structure may show the parent alone.
Overview of recorded pIC50 for various compounds

Illustrative cases are given below, each with its answer.
- Compound: "Cn1c(CCc2ccc(C(=N)N)cc2)nc2cc(N(Cc3ccccc3)C(=O)CN3CCC(Nc4ccccn4)CC3)ccc21 [Example 57, dihydrochloride]"
  pIC50: "7.52 to 8.40"
- Compound: "CN(C(=O)CN1CCC(Nc2ccccn2)CC1)c1ccc2c(c1)nc(CCc1ccc(C(=N)N)cc1)n2C [Example 28, dihydrochloride]"
  pIC50: "7.52 to 8.40"
- Compound: "CN(C(=O)CN1CCC(Nc2ccccc2C(=N)N)CC1)c1ccc2c(c1)nc(CCc1ccc(C(=N)N)cc1)n2C [Example 40, dihydrochloride]"
  pIC50: "6.00 to 7.51"
- Compound: "Cn1c(CCc2ccc(C(=N)N)cc2)nc2cc(N(Cc3cccc4ccccc34)C(=O)CN3CCC(Nc4ccc5ccccc5c4)CC3)ccc21 [Example 22, dihydrochloride]"
  pIC50: "8.52 to 9.30"
- Compound: "Cc1ccccc1NC1CCN(CC(=O)N(C)c2ccc3c(c2)nc(CCc2ccc(C(=N)N)cc2)n3C)CC1 [Example 63, dihydrochloride]"
  pIC50: "7.52 to 8.40"
- Compound: "CN(C)CCCN(C)C(=O)Nc1ccc2c(c1)nc(CCc1ccc(C(=N)N)cc1)n2C [Example 81, hydrochloride]"
  pIC50: "6.00 to 7.51"
- Compound: "CN(CCC(=O)O)C1CCN(CC(=O)N(Cc2cccc3ccccc23)c2ccc3c(c2)nc(CCc2ccc(C(=N)N)cc2)n3C)CC1"
  pIC50: "6.00 to 7.51"
- Compound: "Cn1c(CCc2ccc(C(=N)N)cc2)nc2cc(N(Cc3cccc4ccccc34)C(=O)Nc3cccc(Cl)c3)ccc21 [Example 74, hydrochloride]"
  pIC50: "6.00 to 7.51"
- Compound: "CN(C(=O)CN1CCC(Nc2ccc(Cl)cc2Br)CC1)c1ccc2c(c1)nc(CCc1ccc(C(=N)N)cc1)n2C [Example 65, dihydrochloride]"
  pIC50: "8.52 to 9.30"
- Compound: "CN(C(=O)CN1CCC(Nc2ccc3ccccc3c2)CC1)c1ccc2c(c1)nc(CCc1ccc(C(=N)N)cc1)n2C [Example 30, dihydrochloride]"
  pIC50: "8.52 to 9.30"

Query block: Report value only: pIC50, rh beta tryptase (Homo sapiens, UniProt Q15661), COc1cccc(NC(=O)N(Cc2cccc3ccccc23)c2ccc3c(c2)nc(CCc2ccc(C(=N)N)cc2)n3C)c1 [Example 73, hydrochloride]
Result block: 6.00 to 7.51

----------
# System name: rh beta tryptase (Homo sapiens)
# Assay text: tryptase inhibition in vitro test (cleavage of N-p-tosyl-Gly-Pro-Lys-para-nitroaniline, p-nitroaniline measured at 405 nm)
# Study conditions: rh beta tryptase 0.91 U/ml, substrate 0.6 mM, Tris HCl buffer with calcium and heparin, pH 7.4, 37° C., 5 minutes incubation; read-out: Tryptase-inhibiting activity
Where a name gives a salt, the structure may show the parent alone.
Recorded endpoint: IC50

Illustrative cases are given below, each with its answer.
- Compound: "Cn1c(CCc2ccc(C(=N)N)cc2)nc2cc(N(Cc3cccc4ccccc34)C(=O)N3CCC(Nc4ccccn4)CC3)ccc21 [Example 79, hydrochloride]"
  IC50: "31 to 1000 nM"
- Compound: "Cn1c(CCc2ccc(C(=N)N)cc2)nc2cc(N(Cc3cccc4ccccc34)C(=O)CN3CCC(Nc4ccc(-c5ccccc5)cc4)CC3)ccc21 [Example 23, dihydrochloride]"
  IC50: "4 to 30 nM"
- Compound: "Cc1ccc(NC2CCN(CC(=O)N(C)c3ccc4c(c3)nc(CCc3ccc(C(=N)N)cc3)n4C)CC2)c(Br)c1 [Example 66, dihydrochloride]"
  IC50: "0.5 to 3 nM"
- Compound: "CC(C)c1ccc(NC2CCN(CC(=O)N(C)c3ccc4c(c3)nc(CCc3ccc(C(=N)N)cc3)n4C)CC2)c(Br)c1 [Example 68, dihydrochloride]"
  IC50: "31 to 1000 nM"

Query block: For the compound Cn1c(CCc2ccc(C(=N)N)cc2)nc2cc(N(Cc3cccc4ccccc34)C(=O)Nc3ccccc3)ccc21 [Example 72, hydrochloride] , report IC50.
Result block: 31 to 1000 nM

Query block: For the compound Cn1c(CCc2ccc(C(=N)N)cc2)nc2cc(N(Cc3cccc4ccccc34)C(=O)CN3CCC(Nc4ccc(O)cc4)CC3)ccc21 [Example 18, dihydrochloride] , report IC50.
Result block: 4 to 30 nM

Query block: For the compound Cn1c(CCc2ccc(C(=N)N)cc2)nc2cc(N(Cc3cccc([N+](=O)[O-])c3)C(=O)CN3CCC(Nc4ccccn4)CC3)ccc21 [Example 50, dihydrochloride] , report IC50.
Result block: 4 to 30 nM
